Reported pIC50 values for the following compounds.
# target-under-test: human 11β-HSD1 enzyme (Homo sapiens)
# Construct: stably transfected with a construct containing the full-length gene coding for the human 11β-HSD1 enzyme; expressed in transfected cells; HEK293/11β-HSD1 cells)
# Sequence (P28845 whole entry): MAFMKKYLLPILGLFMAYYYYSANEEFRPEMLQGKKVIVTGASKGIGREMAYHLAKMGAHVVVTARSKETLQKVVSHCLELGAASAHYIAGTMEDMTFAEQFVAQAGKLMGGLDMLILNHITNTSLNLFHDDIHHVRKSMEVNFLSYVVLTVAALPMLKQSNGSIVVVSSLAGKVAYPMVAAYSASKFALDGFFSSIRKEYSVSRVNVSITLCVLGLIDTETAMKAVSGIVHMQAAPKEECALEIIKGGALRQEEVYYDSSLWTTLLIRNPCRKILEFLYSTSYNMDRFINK
# assay-explanation: Cellular in vitro 11β-HSD1 enzyme inhibition assay (SPA, HEK293/11β-HSD1 cells)
# Format: cell-based
# condition-parameters: read-out: IC50 for 11β-HSD1 (HEK293)
pIC50: −log10 of the molar value.

compound	pIC50
O=C(c1csc(-c2cn[nH]c2)c1)N1CCC(F)(c2ccccc2F)CC1	≥ 6.30
O=C(c1csc(-c2cn[nH]c2)c1)N1CCC(O)(c2cc(Cl)ccc2Cl)CC1	≥ 6.30
O=C(c1csc(-c2cn[nH]c2)c1)N1C2CCC1CC(O)(c1ccccc1)C2 (centres unmarked)	≥ 6.30
O=C(c1csc(-c2cn[nH]c2)c1)N1CCC(O)(c2ccc(Cl)cc2Cl)CC1	≥ 6.30
O=C(c1csc(-c2cn[nH]c2)c1)N1CCC(c2ccc(Cl)cc2)CC1	6.00 to 6.30
O=C(c1csc(-c2cn[nH]c2)c1)N1CCC(c2ccccc2OC(F)F)CC1	≥ 6.30
O=C(c1csc(-c2cn[nH]c2)c1)N1CCC(O)(c2ccccc2O)CC1	5.00 to 6.00
CC1(c2ccccc2)CCN(C(=O)c2csc(-c3cn[nH]c3)c2)CC1	≥ 6.30
Cc1ccccc1C1(O)CCN(C(=O)c2csc(-c3cn[nH]c3)c2)CC1	≥ 6.30
O=C(c1csc(-c2cn[nH]c2)c1)N1CCC(O)(c2ccccc2Cl)CC1	≥ 6.30
O=C(c1csc(-c2cn[nH]c2)c1)N1CCC(c2ccccc2Cl)CC1	≥ 6.30

Data credit: patent US8642621B2
